Molecular target: T1, recombinant mouse NKG2D-Fc (mouse; human, UniProt O54709 90-232)
T1 construct: extracellular domain; also called mouse NKG2D-Fc fusion protein; Mouse NKG2D-Fc-biotin; not shown: human IgG1 Fc domain
T1 sequence (looked up): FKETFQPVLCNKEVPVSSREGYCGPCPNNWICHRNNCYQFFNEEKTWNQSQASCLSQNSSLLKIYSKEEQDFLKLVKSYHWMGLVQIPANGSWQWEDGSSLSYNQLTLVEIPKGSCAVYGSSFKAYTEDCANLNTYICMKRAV
Assay: ELISA on coated NKG2D-Fc;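 further: titrated NKG2D-binding domains on plate-bound human, mouse or cynomolgus NKG2D ectodomain–human IgG1 Fc fusions, detected with HRP anti-human kappa secondary and TMB, absorbance at 450 nm corrected at 540 nm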

[
  {
    "Binder": "ADI-27741 (antibody, V domains shown) VH: QVQLQQWGAGLLKPSETLSLTCAVYGGSFSGYYWSWIRQPPGKGLEWIGEIDHSGSTNYNPSLKSRVTISVDTSKNQFSLKLSSVTAADTAVYYCARARGPWSFDPWGQGTLVTVSS VL: DIQMTQSPSTLSASVGDRVTITCRASQSIGSWLAWYQQKPGKAPKLLIYKASSLESGVPSRFSGSGSGTEFTLTISSLQPDDFATYYCQQSNSYYTFGGGTKVEIK",
    "binding result": "binds"
  },
  {
    "Binder": "ADI-29429 (antibody, V domains shown) VH: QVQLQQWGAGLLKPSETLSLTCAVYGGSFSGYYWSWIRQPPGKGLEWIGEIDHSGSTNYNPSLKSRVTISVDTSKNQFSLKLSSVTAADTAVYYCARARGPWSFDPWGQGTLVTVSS VL: DIQMTQSPSTLSASVGDRVTITCRASQSIGSWLAWYQQKPGKAPKLLIYKASSLESGVPSRFSGSGSGTEFTLTISSLQPDDFATYYCQQYELYSYTFGGGTKVEIK",
    "binding result": "binds"
  },
  {
    "Binder": "ADI-29401 (antibody, V domains shown) VH: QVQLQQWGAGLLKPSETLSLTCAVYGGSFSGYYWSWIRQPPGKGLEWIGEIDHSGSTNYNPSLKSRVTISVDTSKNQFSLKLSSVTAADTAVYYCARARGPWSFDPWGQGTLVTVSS VL: DIQMTQSPSTLSASVGDRVTITCRASQSIGSWLAWYQQKPGKAPKLLIYKASSLESGVPSRFSGSGSGTEFTLTISSLQPDDFATYYCQQYDIYPTFGGGTKVEIK",
    "binding result": "binds"
  }
]
